Where do the numbers come from? From the supplement of paper PMC6555819.

- Test system: RARa homodimer (NR concentration 270 nM)
- Assay Explanation: PBM binding z-score (relative to random genomic background probes); higher = stronger binding; sequences stand for … in GC…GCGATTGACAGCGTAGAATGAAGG
Binary call on PBM binding z-score: 1 from 0.7 upward, 0 beneath that.

TCGTATAGGTAAAAGGTGAAAGTCGGTGTGGTAA: 1
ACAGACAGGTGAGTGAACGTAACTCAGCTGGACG: 0
CAGCCTAGGTCAGGGCCAGTATTGGAGGAACGTT: 0

Check this sequence for PBM binding z-score at or above 0.7: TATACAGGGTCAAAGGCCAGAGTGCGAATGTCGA 1

Decide: PBM binding z-score of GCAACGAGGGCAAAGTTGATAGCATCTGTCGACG >= 0.7? 0

Textbook exercise: given the entry GATACAGGGTCAGGTAGAGGCCAGAGTATGGAAA , state whether its PBM binding z-score is greater than or equal to 0.7. 1

Hi, just wondering whether GCATATAGGTAATACAAGGTGACAGTCCGATTGT shows PBM binding z-score of 0.7 or higher. 1

# check: PBM binding z-score of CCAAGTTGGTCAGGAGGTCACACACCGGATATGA is greater than or equal to 0.7 1

Identify whether the reported PBM binding z-score of the following sequence is 0.7 or greater: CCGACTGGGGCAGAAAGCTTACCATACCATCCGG 0

State whether the measured PBM binding z-score reaches 0.7, counting equality as reaching it, for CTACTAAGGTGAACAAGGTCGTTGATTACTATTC 0

Is the recorded value of PBM binding z-score equal to or greater than 0.7 for this sequence? TCTAGTTGGTCACGGTGGTCACACACGACGGGTA 0

Please check the record GCTAGTTGGCCAGTAAAAGGTCACACACCGGTCG and state if its PBM binding z-score is at or above 0.7. 0

---

- Tested on: LXRb:RXRa (NR concentration 270 nM, RXRa partner concentration 90 nM)
- Assay Explanation: PBM binding z-score (relative to random genomic background probes); higher = stronger binding; sequences stand for … in GC…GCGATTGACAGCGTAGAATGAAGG
Entry flag: class 1 if PBM binding z-score reaches 2; class 0 if it does not.

Examples with answers:
CGTCCAAGGTCAAGGTCAGTGATAGAGACTCGAA: class 1
ACTCGGAGGACAAAGGTCATAGCTACGCCAGTGA: class 1
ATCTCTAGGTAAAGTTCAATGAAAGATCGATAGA: class 1
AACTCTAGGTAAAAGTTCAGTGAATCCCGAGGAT: class 0
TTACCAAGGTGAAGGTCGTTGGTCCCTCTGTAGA: class 0
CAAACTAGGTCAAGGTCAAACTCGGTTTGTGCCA: class 1
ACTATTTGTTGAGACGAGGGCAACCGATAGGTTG: class 0
GCGACTGGGGCAAAGCAGATTACCATAAGGTTGG: class 0
ATCTCTAGGTAACAAGTTCAGTGGAAGAGAGGAC: class 0
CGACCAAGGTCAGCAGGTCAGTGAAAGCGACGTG: class 1

Could you verify whether the entry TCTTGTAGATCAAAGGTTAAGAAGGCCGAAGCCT shows PBM binding z-score of no less than 2? class 0

Can AATACAGGGTCATAGTAGGCCAGAGTACGCACAG be said to have PBM binding z-score at or above 2? class 1

For this sequence, is measured PBM binding z-score 2 or higher? GCTATTAGTTGAAACGGCAACCGAATGATTCTCG class 0

hey, is PBM binding z-score for this one >= 2? CATACTGGGCCAAAGGTCATTGATTCCAATGCTC class 1

Say whether GGAACGAGGGCATTCGAGTTGATCGCATGGCGAT shows PBM binding z-score of 2 or more. class 0

---

- Test system: THRa homodimer (NR concentration 90 nM)
- Assay Explanation: PBM binding z-score (relative to random genomic background probes); higher = stronger binding; sequences stand for … in GC…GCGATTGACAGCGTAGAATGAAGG
Measured Metric: PBM binding z-score
Respond numerically, and do not add a unit to the figure.

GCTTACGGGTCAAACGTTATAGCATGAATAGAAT: -0.707

Can you look up the measured PBM binding z-score of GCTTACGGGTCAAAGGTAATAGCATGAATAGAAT for me? -0.169

---

Catalogue of PBM binding z-score values
- System: RARb homodimer (NR concentration 270 nM)
- Assay Explanation: PBM binding z-score (relative to random genomic background probes); higher = stronger binding; sequences stand for … in GC…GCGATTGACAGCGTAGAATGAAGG
Output spec: single numeric token, no unit.

Please review the following examples before continuing.
AGAATGAGTTTATTAAGATCAGGGAATTGCGGTC: 0.079
TCTCGGCGGACACGAAAGGTCAGAGCTCGACATC: 4.12
ATATGGAGGTTATCGGGTCATTCAGTTTGCGCAT: 3.56
CCTACTGGGCCAAAAAGGTCATTGAAGCCGATAA: 4.33
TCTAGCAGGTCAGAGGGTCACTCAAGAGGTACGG: 4.51
AAAATGAGGTTACCAAAGATCAGGGAAACGCTTG: 0.885

Entry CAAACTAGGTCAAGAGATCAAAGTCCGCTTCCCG : reported PBM binding z-score = ? 3.07

Given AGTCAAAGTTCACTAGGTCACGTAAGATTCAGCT , state its recorded PBM binding z-score. 5.29

Reported PBM binding z-score, sequence CCGACTGGGGCTAAGGTTACCATACTCAGTACGA : ____ 1.12

I have this sequence here, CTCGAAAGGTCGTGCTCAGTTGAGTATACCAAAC , and I need its recorded PBM binding z-score. 2.57

Endpoint output: PBM binding z-score of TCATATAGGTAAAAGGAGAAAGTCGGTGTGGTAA . Value? -0.155

Any idea what PBM binding z-score was measured for CGAACTAGGTCAAGGACAGTGTATCTCCGCACGC ? 3.56

---

- Tested on: PPARa:RXRa (NR concentration 270 nM, RXRa partner concentration 90 nM)
- Assay Explanation: PBM binding z-score (relative to random genomic background probes); higher = stronger binding; sequences stand for … in GC…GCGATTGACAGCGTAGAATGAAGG
Measured Metric: PBM binding z-score

Completed entries (count: 2):
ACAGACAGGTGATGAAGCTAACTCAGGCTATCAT: -0.116
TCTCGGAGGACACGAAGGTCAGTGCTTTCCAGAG: 1.59

// returns reported PBM binding z-score for input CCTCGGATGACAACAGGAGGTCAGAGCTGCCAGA 1.91

Look up PBM binding z-score: ATCTCTAGGTAAAAGTTCAGTGAATCCCGAGGAT 4.11

---

- Test system: RXRa homodimer (NR concentration 180 nM)
- Assay Explanation: PBM binding z-score (relative to random genomic background probes); higher = stronger binding; sequences stand for … in GC…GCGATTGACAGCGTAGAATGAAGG
Measured Metric: PBM binding z-score

// solved cases for PBM binding z-score follow
TCATATAGGTAAATGATAGGTGAAAGTCCGATCT: 1.15
GGAAAGAGGGCAAGTTGATAGCAGAGTTTGATGG: 1.43
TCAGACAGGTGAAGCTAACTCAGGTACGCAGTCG: 0.617
ACAGACAGGTGATGATGGTAACTCAGGCTATCAT: 0.335
GATACAGCGTCAAGGCCAGAGTACGCGTATTGAT: -0.253
GTATCAAGGTGAATAGGTCGTTGATGAGTAGGCG: 1.81

Consider the sequence AAAACAGGGTCACTAGGCCAGAGTAGGTACGAAT and give its measured PBM binding z-score. 5.7

Entry AGAATGAGGTTATACGTATATCAGGGAAGAAAGT : reported PBM binding z-score = ? 2.34

For GCGACTGGGGCATCTGCAGGTTACCATAACTTAA , what is its reported PBM binding z-score? 0.555

I'd like to know its PBM binding z-score. The sequence in question is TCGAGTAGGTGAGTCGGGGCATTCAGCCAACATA -0.201

Record request: PBM binding z-score value, item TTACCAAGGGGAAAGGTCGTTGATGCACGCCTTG 2.86

---

Listed next: entries and their corresponding PBM binding z-score.
- Test system: FXR:RXRa (NR concentration 270 nM, RXRa partner concentration 90 nM)
- Assay Explanation: PBM binding z-score (relative to random genomic background probes); higher = stronger binding; sequences stand for … in GC…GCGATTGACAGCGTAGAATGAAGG
Answer as a number with no unit attached.

Examples with answers:
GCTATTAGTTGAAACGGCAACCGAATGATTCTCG: -0.263
TCTAGCAGGCCAGAGGTTCACTCAAGAGGTACGG: -0.592
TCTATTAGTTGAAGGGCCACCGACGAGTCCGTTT: 0.67
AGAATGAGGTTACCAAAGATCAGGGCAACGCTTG: 2.12
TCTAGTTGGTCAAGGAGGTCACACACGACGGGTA: 3.04
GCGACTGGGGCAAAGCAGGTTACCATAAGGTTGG: 1.14

Reported PBM binding z-score, sequence CCTACTGGGCCAAGGTCCTTGATCAGTCAAAGCA : ____ -2.77

Tell me the measured PBM binding z-score of TAGCGTAGGTCAGATCGGGCCAGTATACGCTATA , please. 2.62

# PBM binding z-score lookup, item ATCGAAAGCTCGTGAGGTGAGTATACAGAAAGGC -0.207

Dear colleague, I am looking for the recorded PBM binding z-score of the following sequence: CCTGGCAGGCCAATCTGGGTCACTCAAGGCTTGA 0.937

Tell me the measured PBM binding z-score of CCTATTAGTTGAGCATAAGGGCAACCGAAGCTCG , please. 0.0961

Data request, read-out PBM binding z-score, for GCTATTACTTGAAAGGGCAACCGAATGATTCTCG 0.128
